Biological target: human ETA receptor (Homo sapiens)
Construct: expressed in transfected cells; host or cells: CHO cells (membranes)
Sequence (P25101 21-427): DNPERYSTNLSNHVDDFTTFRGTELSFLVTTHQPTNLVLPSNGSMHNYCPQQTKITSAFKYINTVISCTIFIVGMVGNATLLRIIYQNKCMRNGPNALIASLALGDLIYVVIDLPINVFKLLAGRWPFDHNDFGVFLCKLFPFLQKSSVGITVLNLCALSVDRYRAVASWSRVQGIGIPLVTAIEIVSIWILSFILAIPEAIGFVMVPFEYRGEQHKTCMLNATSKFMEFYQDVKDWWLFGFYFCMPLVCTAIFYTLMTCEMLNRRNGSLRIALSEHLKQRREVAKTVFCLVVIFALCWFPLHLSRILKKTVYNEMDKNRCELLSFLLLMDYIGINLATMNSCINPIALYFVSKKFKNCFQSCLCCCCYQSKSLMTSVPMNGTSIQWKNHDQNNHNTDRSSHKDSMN
Test: Receptor-binding studies, ETA receptor binding assay ([125I]-ET1)
Settings: cloned human ETA receptor-expressing CHO cell membranes; 25 pM [125I]-ET1; 25° C., 30 min; read-out: Ki ET-A
Procedure: After 48 h, the cells were washed with PBS and incubated with 0.05% trypsin-containing PBS for 5 min. […] The membranes were centrifuged at 20,000×g for 10 min, and the pellet was stored in liquid nitrogen. […] The non-specific binding was determined using 10^-7 M ET1. […] The radioactivity collected on the filters was quantified using a Packard 2200 CA liquid scintillation counter. The Ki values were determined by non-linear regression analysis using the LIGAND program.

{"compound": "COc1cc(OC)nc(OC(C(=O)O)C(C)(Oc2ccc(C(C)C)cc2)c2ccccc2)n1 (stereo not shown)", "Ki": "250 nM"}

* * *

Biological target: endothelin receptor of subtype A (Rattus norvegicus)
Construct: endogenous endothelin receptor of subtype A has been detected; endogenous in cells
Sequence (P26684 21-426): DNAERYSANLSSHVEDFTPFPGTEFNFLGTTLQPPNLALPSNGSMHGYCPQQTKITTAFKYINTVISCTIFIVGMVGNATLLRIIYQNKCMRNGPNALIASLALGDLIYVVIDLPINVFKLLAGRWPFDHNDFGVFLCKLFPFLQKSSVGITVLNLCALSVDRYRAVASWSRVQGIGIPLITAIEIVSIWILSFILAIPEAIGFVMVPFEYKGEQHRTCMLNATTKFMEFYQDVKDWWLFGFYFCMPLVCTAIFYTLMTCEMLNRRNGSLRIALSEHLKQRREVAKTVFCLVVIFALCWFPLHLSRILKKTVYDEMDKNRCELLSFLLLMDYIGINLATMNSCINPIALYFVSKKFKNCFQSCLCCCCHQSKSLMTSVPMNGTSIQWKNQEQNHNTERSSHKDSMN
Assay: Functional in vitro assay system for endothelin receptor (subtype A) antagonists (ET1-induced intracellular calcium increase)
Assay type: cell-based

{"compound": "COc1cc(OC)nc(OC(C(=O)O)C(C)(Oc2ccc(SC)cc2)c2ccccc2)n1 (stereo not shown) [Compound 4.58]", "study target": "endothelin receptor of subtype A (Rattus norvegicus)", "unit descriptor": "nM", "IC50": 1000}

* * *

molecular target: human ETA receptor (Homo sapiens, UniProt P25101); construct: expressed in transfected cells; host or cells: CHO cells (membranes); assay: Receptor-binding studies, ETA receptor binding assay ([125I]-ET1)
pKi: −log10 of the molar value.

{"compound": "COc1cc(OC)nc(OC(C(=O)O)C(C)(Oc2ccc(SC)cc2)c2ccccc2)n1 (stereo not shown) [Compound 4.58]", "study target": "human ETA receptor (Homo sapiens, UniProt P25101)", "pKi": 6.80}
